# measurement target: IDH1-R132H recombinant protein (Homo sapiens (Human), UniProt O75874, R132H)
# Sequence (O75874 whole entry R132H): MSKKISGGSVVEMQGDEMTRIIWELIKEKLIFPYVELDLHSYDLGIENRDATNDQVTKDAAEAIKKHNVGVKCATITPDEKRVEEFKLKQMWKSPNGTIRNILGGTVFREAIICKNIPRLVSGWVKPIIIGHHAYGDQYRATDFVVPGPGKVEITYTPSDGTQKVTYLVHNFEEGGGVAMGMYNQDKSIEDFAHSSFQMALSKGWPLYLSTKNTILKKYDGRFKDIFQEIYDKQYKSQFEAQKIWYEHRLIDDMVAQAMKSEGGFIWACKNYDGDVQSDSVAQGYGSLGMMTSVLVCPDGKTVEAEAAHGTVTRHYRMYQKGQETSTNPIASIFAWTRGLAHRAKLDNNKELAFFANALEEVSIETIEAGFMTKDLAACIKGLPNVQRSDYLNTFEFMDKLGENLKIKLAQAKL
# test description: IDH1-R132H enzymatic assay (inhibition of NADPH consumption, diaphorase/resazurin readout)
# experimental parameters: read-out: Enzyme IDH1 R132H IC50 (Range)
Overview of reported IC50 across a group of molecules:

// below: answered molecules
molecule | measure name | measurement
COC(=O)C(c1ccnc(N[C@@H](C)c2cc3cc(Cl)ccc3[nH]c2=O)n1)S(C)(=O)=O (stereo partly shown) | IC50 | 1000 to 10000 nM
COc1nc(NC2(c3cc4cc(Cl)ccc4[nH]c3=O)CC2)ncc1C#N | IC50 | 100 to 1000 nM
COC(=O)Nc1ccnc(N[C@@H](C)c2cc3cc(Cl)ccc3[nH]c2=O)n1 | IC50 | < 100 nM
COc1nc(N[C@@H](C)c2cc3cc(Cl)cc(F)c3[nH]c2=O)ncc1C#N | IC50 | < 100 nM
COc1cc2[nH]c(=O)c([C@H](C)Nc3ncc(C#N)c(OC)n3)cc2cc1Cl | IC50 | < 100 nM
COc1nc(N[C@@H](C)c2cc3cc(Cl)c(OC(C)C)cc3[nH]c2=O)ncc1C#N | IC50 | < 100 nM
CC(=O)Nc1ccnc(N[C@@H](C)c2cc3cc(Cl)ccc3[nH]c2=O)n1 | IC50 | < 100 nM
Cc1cccn1-c1ccnc(N[C@@H](C)c2cc3cc(Cl)ccc3[nH]c2=O)n1 | IC50 | < 100 nM
C[C@H](Nc1nccc(-c2cncn2CC2CC2)n1)c1cc2cc(Cl)ccc2[nH]c1=O | IC50 | < 100 nM
C[C@H](Nc1nccc(NC(=O)N(C)C)n1)c1cc2cc(Cl)ccc2[nH]c1=O | IC50 | > 10000 nM

IC50 reading for O=C1OCCN1c1ccnc(NC2(c3cc4cc(Cl)ccc4[nH]c3=O)CC2)n1 : 100 to 1000 nM

---

# key: entry, value: IC50
# Test system: HCT116 isogenic IDH1-R132C mutant cells
# test description: Cellular 2-HG assay using HCT116 mutant IDH1 cells (R132C), RapidFire mass spectrometry
# Assay type: cell-based
# experimental parameters: Homo sapiens, HCT-116; cellular 2-HG level, HCT116 IDH1-R132C cells, 24 hours; read-out: HCT116 IDH1 R132C IC50 (Range)

mol | measure name | measurement
C[C@H](Nc1nccc(N2CCOC2=O)n1)c1cc2cc(Cl)ccc2[nH]c1=O | IC50 | 100 to 1000 nM

GET /value?item= C[C@H](Nc1nccc(-n2cnc3c2CCC3)n1)c1cc2cc(Cl)ccc2[nH]c1=O &field=IC50 returns 100 to 1000 nM

For C[C@H](Nc1nccc(-c2cnsc2)n1)c1cc2cc(Cl)ccc2[nH]c1=O the molecule record lists IC50 as 1000 to 10000 nM

// COc1cc2[nH]c(=O)c([C@H](C)Nc3nccc(N4CCOC4=O)n3)cc2cc1Cl : IC50 value = < 100 nM

Recorded result, C[C@H](Nc1nccc(N2CCN(C)C2=O)n1)c1cc2cc(Cl)ccc2[nH]c1=O , IC50: 100 to 1000 nM

C[C@H](Nc1nccc(-c2ccn[nH]2)n1)c1cc2cc(Cl)ccc2[nH]c1=O yielded IC50 of 1000 to 10000 nM

Just so you know, measured IC50 for C[C@H](Nc1ncc(C#N)c(C2CC2)n1)c1cc2cc(Cl)ccc2[nH]c1=O came out at 100 to 1000 nM

// field: IC50; key: Cc1cnccc1-c1ccnc(N[C@@H](C)c2cc3cc(Cl)ccc3[nH]c2=O)n1 ; value = 100 to 1000 nM

According to the records, this molecule Cc1oncc1-c1ccnc(N[C@@H](C)c2cc3cc(Cl)ccc3[nH]c2=O)n1 displays IC50 of 1000 to 10000 nM

Lab note: CC(=O)Nc1ccnc(N[C@@H](C)c2cc3cc(Cl)c(F)cc3[nH]c2=O)n1 gave IC50 of < 100 nM

Sure, the documented IC50 for C[C@H](Nc1nccc(-c2cncc3ccccc23)n1)c1cc2cc(Cl)ccc2[nH]c1=O is 1000 to 10000 nM

Lab book: IC50 of Cc1cscc1-c1ccnc(N[C@@H](C)c2cc3cc(Cl)ccc3[nH]c2=O)n1 noted as 100 to 1000 nM

Lab book: IC50 of C[C@H](Nc1nccc(-c2cccn2C)n1)c1cc2cc(Cl)ccc2[nH]c1=O noted as 100 to 1000 nM

Record CC(=O)Nc1ccnc(N[C@@H](C)c2cc3cc(Cl)ccc3[nH]c2=O)n1 , field IC50: < 100 nM

Briefly, IC50 measured for CC(C)CNC(=O)c1ccnc(N[C@@H](C)c2cc3cc(Cl)ccc3[nH]c2=O)n1 : 1000 to 10000 nM

---

In this section we review reported IC50 values for a set of molecules.
# Test system: HCT116 isogenic IDH1-R132C mutant cells
# test description: Cellular 2-HG assay using HCT116 mutant IDH1 cells (R132C), RapidFire mass spectrometry
# Type: cell-based
# experimental parameters: Homo sapiens, HCT-116; cellular 2-HG level, HCT116 IDH1-R132C cells, 24 hours; read-out: HCT116 IDH1 R132C IC50 (Range)

Some entries whose results are on file:
molecule | measurement
C[C@H](Nc1nccc(-c2cccnc2)n1)c1cc2cc(Cl)ccc2[nH]c1=O [Compound I-94] | 1000 to 10000 nM
CC(=O)Nc1ccnc(N[C@@H](C)c2cc3cc(Cl)cc(F)c3[nH]c2=O)n1 [Compound I-160] | < 100 nM
COc1nc(N[C@@H](C)c2cc3cc(Cl)c(OCC4CC4)cc3[nH]c2=O)ncc1C#N [Compound I-159] | < 100 nM

Recorded IC50 (molecule CC(=O)Nc1ccnc(N[C@@H](C)c2cc3cc(Cl)cnc3[nH]c2=O)n1 [Compound I-182] ): 100 to 1000 nM

Value of IC50 reported for the molecule Cc1cccn1-c1ccnc(N[C@@H](C)c2cc3cc(Cl)ccc3[nH]c2=O)n1 [Compound I-51] is 100 to 1000 nM

---

# measurement target: IDH1-R132H recombinant protein (Homo sapiens (Human), UniProt O75874, R132H)
# test description: IDH1-R132H enzymatic assay (inhibition of NADPH consumption, diaphorase/resazurin readout)
# experimental parameters: read-out: Enzyme IDH1 R132H IC50 (Range)
# Experimental: Assays were performed in a 384-well black plate. […] The plate was maintained at 25° C. for 15 minutes and then read on a plate reader with excitation and emission wavelengths at 535 nm and 590 nm, respectively. The IC50 of a given compound was calculated by fitting the dose response curve of inhibition of NADPH consumption at a given concentration with the four parameter logistic equation.
pIC50: −log10 of the molar value.
The following molecules are listed with their measured pIC50 values.

Reference set (2 entries):
mol | pIC50
C[C@H](Nc1nccc(CN2CCCS2(=O)=O)n1)c1cc2cc(Cl)ccc2[nH]c1=O | 6.00 to 7.00
Cc1nc(C)c(-c2ccnc(N[C@@H](C)c3cc4cc(Cl)ccc4[nH]c3=O)n2)s1 | 5.00 to 6.00

// moving on: another record for pIC50
The molecule identified as Cc1oncc1-c1ccnc(N[C@@H](C)c2cc3cc(Cl)ccc3[nH]c2=O)n1 registered its pIC50 at > 7.00

---

# measurement target: IDH1-R132H recombinant protein (Homo sapiens (Human), UniProt O75874, R132H)
# test description: IDH1-R132H enzymatic assay (inhibition of NADPH consumption, diaphorase/resazurin readout)
# experimental parameters: read-out: Enzyme IDH1 R132H IC50 (Range)
Here, each record is paired with measured IC50 data.

Use these answered entries as a reference point.
compound | IC50
COCc1ccccc1-c1ccnc(N[C@@H](C)c2cc3cc(Cl)ccc3[nH]c2=O)n1 | 0.1 to 1 µM
CC(=O)N(Cc1ccnc(N[C@@H](C)c2cc3cc(Cl)ccc3[nH]c2=O)n1)C1CC1 | 1 to 10 µM
Cc1noc(C)c1-c1ccnc(N[C@@H](C)c2cc3cc(Cl)ccc3[nH]c2=O)n1 | 1 to 10 µM
CC(C)CN(c1ccnc(N[C@@H](C)c2cc3cc(Cl)ccc3[nH]c2=O)n1)c1ncco1 | 0.1 to 1 µM
CC(=O)Nc1ccnc(N[C@@H](C)c2cc3cc(Cl)c(F)cc3[nH]c2=O)n1 | < 0.1 µM

compound C[C@H](Nc1ncc(C#N)c(N)n1)c1cc2cc(Cl)ccc2[nH]c1=O , IC50 observed: 0.1 to 1 µM

The measured IC50 associated with C[C@H](Nc1nccc(Nc2ncco2)n1)c1cc2cc(Cl)ccc2[nH]c1=O reads 0.1 to 1 µM

// sample CC(C)C[S@@+]([O-])c1ccnc(N[C@@H](C)c2cc3cc(Cl)ccc3[nH]c2=O)n1 , its IC50 was 1 to 10 µM

Lookup result for C[C@H](Nc1nccc(-c2cccn2C)n1)c1cc2cc(Cl)ccc2[nH]c1=O ; measured IC50: < 0.1 µM
